Measured values drawn from patent US20250270304A1 for this set.

# Tested on: T1, Mature Activin A (human, UniProt P08476 311-426)
# T1 construct: also called active Activin A; INHBA mature
# T1 sequence: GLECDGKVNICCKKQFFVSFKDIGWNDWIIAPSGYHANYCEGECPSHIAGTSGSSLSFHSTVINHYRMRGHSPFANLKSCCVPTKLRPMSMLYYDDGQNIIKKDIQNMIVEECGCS
# Procedure text: ELISA, coated antigen, OD450
# Protocol: Antibodies were re-expressed in 40 mL cultures of Expi293 cells and purified using protein G magnetic sepharose beads (Cytiva, Marlborough, MA) to provide larger quantities for secondary screening. Secondary screening included dose responses in both functional assays described above (SMAD nuclear localization and fibroblast activations assays) as well as in binding assays to the same antigens listed in Table 3. […]
Please respond with reported fold-change of OD 450 over negative control (BSA) for every item in the list.
Number in fold, nothing else.

Data request: Dear colleague, I am looking for the recorded fold-change of OD 450 over negative control (BSA) of the following binder: AB349 (antibody, IgG1, V domains shown) VH: QVQLQESGPGLVKPSQTLSLTCTVSGVSLSNARLGVNWIRQPPGKGLEWIGYGSVTGSTDYNPSLKSRVTMSVDTSKNQFSLKVNSVTAADTAVYYCTTSYLVDTAMVTRWGQGTLVTVSS VL: EIVMTQSPATLSLSPGERATLSCRASQRIGSDLAWYQQKPGQAPRLLIYSASSRAPGIPARFSGSGSGTDFTLTISSLEPEDFAVYYCSTMAIPFGGGTKVEIK
Data returned: 5.14

Data request: Dear colleague, I am looking for the recorded fold-change of OD 450 over negative control (BSA) of the following binder: AB340 (antibody, IgG1, V domains shown) VH: EVQLVESGGGLVQPGGSLRLSCAASGFTASRNYMSWVRQAPGKGLELVASISGSGDYTYYPDSVKGRFTISRDNAKNSLYLQMNSLRAEDTAVYYCARSPRGPRLLGYYYGMDVWGQGTTVTVSS VL: DIVMTQSPLSLPVTPGEPASISCRSSRSLVHGSGHNYLHWYLQKPGQSPQLLIYGASTRVAGVPDRFSGSGSGTDFTLKISRVEAEDVGVYYCMQGTQAPRTFGGGTKVEIK
Data returned: 2.33

Data request: Dear colleague, I am looking for the recorded fold-change of OD 450 over negative control (BSA) of the following binder: AB433 (antibody, IgG1, V domains shown) VH: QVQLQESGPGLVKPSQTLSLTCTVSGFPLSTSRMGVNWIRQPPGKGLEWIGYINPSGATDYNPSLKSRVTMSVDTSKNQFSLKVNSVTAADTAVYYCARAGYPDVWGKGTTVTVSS VL: EIVMTQSPATLSLSPGERATLSCRASQSVRTSLAWYQQKPGQAPRLLIYDTSIRAAGIPARFSGSGSGTDFTLTISSLEPEDFAVYYCQQYGNWHFGGGTKVEIK
Data returned: 9.41
